The reported measurements were obtained from patent US8324380B2.

Target: GPR73 (prokineticin 1 receptor) (Homo sapiens)
Construct: expressed in transfected cells; host or cells: HEK 293
Sequence (Q8TCW9 whole entry, species assumed): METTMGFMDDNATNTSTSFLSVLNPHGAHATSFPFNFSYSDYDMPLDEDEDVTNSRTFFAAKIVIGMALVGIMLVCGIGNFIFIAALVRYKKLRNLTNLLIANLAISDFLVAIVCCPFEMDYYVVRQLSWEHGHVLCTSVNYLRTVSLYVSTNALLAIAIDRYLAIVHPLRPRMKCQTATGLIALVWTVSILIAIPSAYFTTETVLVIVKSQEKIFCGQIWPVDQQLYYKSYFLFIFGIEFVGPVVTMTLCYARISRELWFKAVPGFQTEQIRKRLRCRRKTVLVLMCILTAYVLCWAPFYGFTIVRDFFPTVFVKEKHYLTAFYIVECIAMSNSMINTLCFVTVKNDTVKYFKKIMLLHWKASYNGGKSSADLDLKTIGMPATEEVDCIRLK
Experiment: PK1 functional assay: Ca2+ mobilization on the FLIPR
Format: cell-based
Conditions: 10 µM; read-out: Ca^2+ Mobilization % Inh @10 µM

smiles record	unit symbol	inhibition at 10 µM
Nc1ncc(CCNc2nc(=O)n(Cc3ccc(Cl)c(Cl)c3)c(=O)n2Cc2ccc3c(c2)CCO3)[nH]1	%	54
Nc1nc2ccc(F)cc2n1CCNc1nc(=O)n(Cc2ccc(F)cc2)c(=O)n1Cc1ccc(OC(F)F)cc1	%	87
Nc1nc2ccccc2n1CCNc1nc(=O)n(Cc2ccc3c(c2)CCO3)c(=O)n1Cc1ccc(OC(F)F)cc1	%	102

* * *

Target: GPR73 (prokineticin 1 receptor) (Homo sapiens)
Construct: expressed in transfected cells; host or cells: HEK 293
Assay: PK1 functional assay: Ca2+ mobilization on the FLIPR
Assay type: cell-based
Conditions: HEK 293 GPR73 cells; IC50 (further determination); read-out: Ca^2+ Mobilization IC50
pIC50: −log10 of the molar value.
Mark 0 for pIC50 values under 7, and 1 for everything at or above.

smiles record	target system	assigned class
Nc1nccn1CCNc1nc(=O)n(Cc2ccc(F)cc2)c(=O)n1Cc1ccc(OC(F)F)cc1	GPR73 (prokineticin 1 receptor) (Homo sapiens)	1
COc1ccc(Cn2c(NCCn3ccnc3N)nc(=O)n(Cc3ccc(F)cc3)c2=O)cc1	GPR73 (prokineticin 1 receptor) (Homo sapiens)	1
COc1ccc(Cn2c(NCCc3cnc(N)[nH]3)nc(=O)n(Cc3ccc(F)cc3)c2=O)cc1	GPR73 (prokineticin 1 receptor) (Homo sapiens)	1
Nc1nc2ccccc2n1CCNc1nc(=O)n(Cc2ccc(F)cc2)c(=O)n1Cc1ccc(OC(F)(F)F)cc1	GPR73 (prokineticin 1 receptor) (Homo sapiens)	0
COc1ccc(Cn2c(NCCn3c(N)nc4ccc(C)cc43)nc(=O)n(Cc3ccc(F)cc3)c2=O)cc1	GPR73 (prokineticin 1 receptor) (Homo sapiens)	1

* * *

Target: GPR73 (prokineticin 1 receptor) (Homo sapiens)
Construct: expressed in transfected cells; host or cells: HEK 293
Assay: PK1 functional assay: Ca2+ mobilization on the FLIPR
Assay type: cell-based
Conditions: HEK 293 GPR73 cells; read-out: Ca^2+ Mobilization IC50

compound	IC50 / nM
COc1ccc(Cn2c(NCCc3cnc(N)[nH]3)nc(=O)n(Cc3ccc4c(c3)CCO4)c2=O)cc1 [Cpd 62]	241
Cn1nnc2cc(Cn3c(=O)nc(NCCc4cnc(N)[nH]4)n(Cc4ccc5c(c4)CCO5)c3=O)ccc21 [Cpd 68]	1410
CSc1ccc(Cn2c(=O)nc(NCCc3cnc(N)[nH]3)n(Cc3ccc(OC(F)F)cc3)c2=O)cc1 [Cpd 80]	32
Nc1nc2ccccc2n1CCNc1nc(=O)n(Cc2ccc(F)cc2)c(=O)n1Cc1ccc(OC(F)F)cc1 [Cpd 20]	53
Nc1nc2ccc(F)cc2n1CCNc1nc(=O)n(Cc2ccc(F)cc2)c(=O)n1Cc1ccc(OC(F)(F)F)cc1 [Cpd 33]	323
COc1cccc2c1nc(N)n2CCNc1nc(=O)n(Cc2ccc(F)cc2)c(=O)n1Cc1ccc(OC(F)F)cc1 [Cpd 55]	233
Nc1nc2c(F)cccc2n1CCNc1nc(=O)n(Cc2ccc(F)cc2)c(=O)n1Cc1ccc(OC(F)(F)F)cc1 [Cpd 39]	380
